System: Peroxisome proliferator-activated receptor alpha (Mus musculus, UniProt P23204)
Sequence (P23204 whole entry, the tested form may be a part): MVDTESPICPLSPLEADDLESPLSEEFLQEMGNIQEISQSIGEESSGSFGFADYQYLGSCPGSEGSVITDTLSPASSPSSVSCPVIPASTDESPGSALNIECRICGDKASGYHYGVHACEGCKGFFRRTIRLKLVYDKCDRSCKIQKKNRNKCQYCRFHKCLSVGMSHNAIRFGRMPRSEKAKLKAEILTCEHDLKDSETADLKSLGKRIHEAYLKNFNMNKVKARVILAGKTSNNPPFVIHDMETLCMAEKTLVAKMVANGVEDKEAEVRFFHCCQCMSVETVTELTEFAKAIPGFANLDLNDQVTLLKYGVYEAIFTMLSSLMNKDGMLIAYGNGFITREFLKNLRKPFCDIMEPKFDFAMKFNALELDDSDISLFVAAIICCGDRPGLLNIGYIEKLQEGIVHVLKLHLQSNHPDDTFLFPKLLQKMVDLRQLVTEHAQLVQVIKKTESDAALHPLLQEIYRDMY
Experiment Description: Agonist activity at mouse PPARalpha expressed in african green monkey CV1 cells by Gal4 transactivation assay
pEC50: −log10 of the molar value.
Reported Endpoint: pEC50

Simply: "CCCc1nc2c(C)cc(-c3nc4ccccc4n3C)cc2n1Cc1ccc(-c2ccccc2C(=O)O)cc1" , Peroxisome proliferator-activated receptor alpha (Mus musculus, UniProt P23204), pEC50 = < 5.00

Given the compound CCC(NC(=O)c1ccc2c(c1)c(C)c(C)n2Cc1ccc(-c2ccccc2C(=O)O)cc1)c1ccccc1 (stereo not drawn) and test system Peroxisome proliferator-activated receptor alpha (Mus musculus, UniProt P23204), the measured pEC50 is 5.26

Param item: CCCc1nc2ccc(C(=O)NC(CC)c3ccccc3)cc2n1Cc1ccc(-c2ccccc2C(=O)O)cc1 (stereo not drawn) ; param system: Peroxisome proliferator-activated receptor alpha (Mus musculus, UniProt P23204); output pEC50: < 5.00

----------
Experiment Description: Half life in CD rat at 1 mg/kg, iv and 5 mg/kg, po
Assay type: ADME, organism-based
Applied Conditions: in vivo
Reported Endpoint: half-life (h)
API: value field is a number in h; no unit string.

# half-life (compound: CCC(NC(=O)c1ccc2c(c1)c(C)c(C)n2Cc1ccc(-c2ccccc2C(=O)O)cc1)c1ccccc1 (stereo unspecified) ) is 4.58

----------
Experiment Description: Volume of distribution at steady state in CD rat at 1 mg/kg, iv and 5 mg/kg, po
Format: ADME, organism-based
Applied Conditions: in vivo, read-out: Vdss
Reported Endpoint: Vd (L/kg)
Kindly provide the numeric value in L/kg only, without the unit symbol.

Looking up CCC(NC(=O)c1ccc2c(c1)c(C)c(C)n2Cc1ccc(-c2ccccc2C(=O)O)cc1)c1ccccc1 (stereo unspecified) , I see its Vd listed as 17

----------
System: Peroxisome proliferator-activated receptor alpha (Homo sapiens)
Sequence (Q07869 whole entry): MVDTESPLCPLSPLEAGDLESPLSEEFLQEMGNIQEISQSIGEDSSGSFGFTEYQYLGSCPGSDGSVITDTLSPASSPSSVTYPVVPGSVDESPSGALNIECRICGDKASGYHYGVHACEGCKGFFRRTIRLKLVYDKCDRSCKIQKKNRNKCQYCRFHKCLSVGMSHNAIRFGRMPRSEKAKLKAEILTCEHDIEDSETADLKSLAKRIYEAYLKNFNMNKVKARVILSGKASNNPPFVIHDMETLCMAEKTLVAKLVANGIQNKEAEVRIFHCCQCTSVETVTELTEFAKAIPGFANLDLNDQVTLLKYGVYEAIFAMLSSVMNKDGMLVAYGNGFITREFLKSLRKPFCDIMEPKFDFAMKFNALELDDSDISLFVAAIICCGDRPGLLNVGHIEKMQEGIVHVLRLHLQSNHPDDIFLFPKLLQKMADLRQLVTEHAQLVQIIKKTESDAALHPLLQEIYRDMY
Experiment Description: Agonist activity at human PPARalpha expressed in african green monkey CV1 cells by Gal4 transactivation assay
Provide the reported EC50 of each item.

Recorded result, CCC(NC(=O)c1ccc2c(c1)c(C)c(C)n2Cc1ccc(-c2ccccc2C(=O)O)cc1)c1ccccc1 (stereo not drawn) , EC50: > 10 µM

For record CCCc1nc2ccc(C(=O)NC(CC)c3ccccc3)cc2n1Cc1ccc(-c2ccccc2C(=O)O)cc1 (stereo not drawn) the listed EC50 is > 10 µM

// field: EC50; key: CCC(NC(=O)c1ccc2c(c1)cc(C)n2Cc1ccc(-c2ccccc2C(=O)O)cc1)c1ccccc1 (stereo not drawn) ; value = 4.96 µM

Recorded result, "CCCc1nc2c(C)cc(-c3nc4ccccc4n3C)cc2n1Cc1ccc(-c2ccccc2C(=O)O)cc1" , EC50: > 10 µM

Short answer for CCC(C(=O)Nc1ccc2c(c1)c(C)c(C)n2Cc1ccc(-c2ccccc2C(=O)O)cc1)c1ccccc1 (stereo not drawn) : EC50 was 6.14 µM

Noted for "Cc1c(C)n(Cc2ccc(-c3ccccc3C(=O)O)cc2)c2ccc(C(=O)NCc3ccccc3)cc12" : its EC50 reads > 10 µM

compound CCC(NC(=O)c1ccc2cc(C)n(Cc3ccc(-c4ccccc4C(=O)O)cc3)c2c1)c1ccccc1 (stereo not drawn) , EC50 observed: > 10 µM

For this compound ( CCCc1c(SC)c2cc(NC(=O)C(CC)c3ccccc3)ccc2n1Cc1ccc(-c2ccccc2C(=O)O)cc1 (stereo not drawn) ), measured EC50 is > 10 µM
